- tested_system: Murine NOS-2 (iNOS) (Mus musculus)
- Sequence (P29477 whole entry): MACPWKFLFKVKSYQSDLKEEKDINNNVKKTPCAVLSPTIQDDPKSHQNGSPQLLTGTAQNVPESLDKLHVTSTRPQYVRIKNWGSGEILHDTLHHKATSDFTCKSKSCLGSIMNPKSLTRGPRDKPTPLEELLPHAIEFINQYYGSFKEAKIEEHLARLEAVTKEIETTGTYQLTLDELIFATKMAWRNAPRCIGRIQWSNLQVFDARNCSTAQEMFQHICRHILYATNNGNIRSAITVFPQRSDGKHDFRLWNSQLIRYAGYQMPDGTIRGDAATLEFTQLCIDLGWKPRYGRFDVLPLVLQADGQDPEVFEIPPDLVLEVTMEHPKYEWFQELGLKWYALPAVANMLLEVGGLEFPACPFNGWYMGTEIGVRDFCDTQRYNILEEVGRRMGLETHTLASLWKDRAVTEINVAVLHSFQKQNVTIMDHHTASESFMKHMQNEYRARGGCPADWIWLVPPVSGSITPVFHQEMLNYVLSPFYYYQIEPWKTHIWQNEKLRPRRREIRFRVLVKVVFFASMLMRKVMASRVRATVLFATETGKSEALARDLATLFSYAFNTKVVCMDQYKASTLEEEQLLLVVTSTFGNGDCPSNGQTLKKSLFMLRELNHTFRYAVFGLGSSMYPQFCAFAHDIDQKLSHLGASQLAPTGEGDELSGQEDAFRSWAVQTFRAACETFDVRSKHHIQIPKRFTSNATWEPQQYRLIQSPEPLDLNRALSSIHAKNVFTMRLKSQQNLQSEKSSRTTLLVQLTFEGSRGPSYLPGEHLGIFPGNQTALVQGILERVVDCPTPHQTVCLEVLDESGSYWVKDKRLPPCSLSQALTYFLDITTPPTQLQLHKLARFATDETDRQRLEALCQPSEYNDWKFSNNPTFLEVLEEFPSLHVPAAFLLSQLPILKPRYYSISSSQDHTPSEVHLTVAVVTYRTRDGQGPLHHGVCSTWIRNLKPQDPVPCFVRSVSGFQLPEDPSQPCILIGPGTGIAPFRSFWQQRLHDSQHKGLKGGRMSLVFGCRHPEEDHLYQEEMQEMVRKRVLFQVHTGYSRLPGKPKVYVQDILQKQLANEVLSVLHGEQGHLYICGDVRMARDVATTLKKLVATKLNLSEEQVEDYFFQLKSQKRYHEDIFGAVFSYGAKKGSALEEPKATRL
- measurement_description: Murine NOS-2 (iNOS) assay ([3H]-arginine to [3H]-citrulline conversion)
- protocol_conditions: recombinant murine NOS-2, 20 min at 37° C., 10 uM L-[3H]arginine; ** mean of 2 determinations
pIC50: −log10 of the molar value.
readout_type: pIC50

Would you please look over these solved cases?
NCCCOc1cc(=O)oc2ccccc12 [Example 19, 4-(3-Amino-propoxy)-1-benzopyran-2-one] : 5.13
O=c1cc(OCC2CCCNC2)c2cc(Cl)ccc2o1 (centres unmarked) [Example 33] : 5.82
CNCCCOc1cc(=O)oc2ccc(Cl)cc12 [Example 3] : 6.60

(P) Cc1ccc2oc(=O)cc(OCCCN(C)C)c2c1 [Example 23]
(Q) NCCCOc1cc(=O)oc2ccc(F)cc12 [Example 12]
Ask: Which is greater in pIC50, the first item P or the second item Q ? Lab log: write the label of the selected item as the result.
Reply: Q

Reference source for all entries: patent US7538233B2
